System: SB.mhdgc-1
Run description: viability at highest tested concentration (MAXR) relative to DMSO; higher = less cytotoxic
Conditions: SB.mhdgc-1 (hereditary c.1380delA CDH1 gastric cancer)
Rule: viability below 70% gives label 1. Equal to or above 70% gives label 0.

Consider the worked cases shown below.
Incoming: Confirm or reject: viability of c1ccc(-c2oc3ncnc(NC[C@@H]4CCCO4)c3c2-c2ccccc2)cc1 [AIM-100] (top concentration 46.0829 µM) lies strictly below 70%
Outgoing: label 1

Incoming: Confirm or reject: viability of CC(C)(C(=O)NCC(F)(F)C(F)(F)F)C(=O)N[C@@H]1C(=O)Nc2ccccc2-c2ccccc21 (top concentration 46.0829 µM) lies strictly below 70%
Outgoing: label 1

Incoming: Confirm or reject: viability of COc1cc2nccc(Oc3ccc(NC(=O)Nc4ccc(F)cc4F)c(F)c3)c2cc1OC [KI-8751] (top concentration 46.0829 µM) lies strictly below 70%
Outgoing: label 1

Incoming: Confirm or reject: viability of NC(=O)Nc1cc(-c2ccc(CN3CCOCC3)cc2)sc1C(N)=O [AZ-TAK1 Inhibitor] (top concentration 46.0829 µM) lies strictly below 70%
Outgoing: label 1

***
Incoming: Confirm or reject: viability of O=C(/C=C/c1ccc(/C=C/C(=O)Nc2ccc(C3=NCCN3)cc2)cc1)Nc1ccc(C2=NCCN2)cc1 [GW 4869] (top concentration 46.0829 µM) lies strictly below 70%
Outgoing: label 0

====

Test system: SB.mhdgc-1
Run description: viability at highest tested concentration (MAXR) relative to DMSO; higher = less cytotoxic
Conditions: SB.mhdgc-1 (hereditary c.1380delA CDH1 gastric cancer)
Bucketed by reported viability, buckets being category 1 (below 10%), category 2 (10% to below 60%), category 3 (60% or more)

Incoming: // bin(item) where item = CN1[C@@H]2CCC[C@H]1C[C@@H](NC(=O)c1nn(C)c3ccccc13)C2.Cl [Granisetron hydrochloride] (top concentration 46.0829 µM)
Outgoing: category 2

Incoming: // bin(item) where item = C\C1=C\C(=O)C2=C(C=CC=C2)C1=O [Menadione] (top concentration 46.0829 µM)
Outgoing: category 1

Incoming: // bin(item) where item = Cc1cccc(N(C)C(=S)Oc2ccc3ccccc3c2)c1 [Tolnaftate] (top concentration 46.0829 µM)
Outgoing: category 3

Incoming: // bin(item) where item = CC(=O)OCC(CCn1cnc2cnc(N)nc21)COC(C)=O [Famciclovir] (top concentration 46.0829 µM)
Outgoing: category 3

Incoming: // bin(item) where item = CCN1CCN(CC1)CC(=O)NC2=CC=C(C3=C2C4=C(S3)C=CC=C4)C5=C6O\C(=C/C(=O)C6=CC=C5)N7CCOCC7 (top concentration 46.0829 µM)
Outgoing: category 1

API: the following record is the query input.
Incoming: // bin(item) where item = O=[N+]([O-])c1cnc(Sc2nnc(O)n2-c2ccc3c(c2)OCCO3)s1 [BI-78D3] (top concentration 46.0829 µM)
Outgoing: category 1

====

Entries and their AC50 for growth inhibition (log10 M)
Test system: SB.mhdgc-1
Run description: AC50 for growth inhibition (viability) (log10 M); higher = less potent
Conditions: SB.mhdgc-1 (hereditary c.1380delA CDH1 gastric cancer)
Structures can show the parent of a compound that is named as a salt.

// solved cases for AC50 for growth inhibition (log10 M) follow
Looking up ClC1=CC=C(CCCOC/2=N/NC(=O)C(=C2NCC3=CN=CC=C3)/Br)C=C1 [Parogrelil] , I found its AC50 for growth inhibition (log10 M) recorded as -5.13

Looking up C[C@]12CC[C@@H]3c4ccc(O)cc4CC[C@H]3[C@@H]1CC[C@@H]2O [Estradiol] , I found its AC50 for growth inhibition (log10 M) recorded as -5.28

Looking up CCc1ccc(OCc2ccccc2C(=O)Nc2ccc3nc(C)cc(N)c3c2)cc1 [JTC-801] , I found its AC50 for growth inhibition (log10 M) recorded as -5.43

Looking up `CN(c1ncccc1CNc1nc(Nc2ccc3c(c2)CC(=O)N3)ncc1C(F)(F)F)[S+](C)(=O)[O-]` , I found its AC50 for growth inhibition (log10 M) recorded as -5.18

Looking up CC[C@H](CC#N)OC(=O)N[C@@H](C)c1cccc(NC(=O)Nc2ccc(-c3cnco3)c(OC)c2)c1 [AVN-944] , I found its AC50 for growth inhibition (log10 M) recorded as -5.88

Looking up COC1=C(OCCCN2CCOCC2)C=C3N=CC=C(OC4=CC=C(C=C4F)\C5=C\N=C(\NC6=CC=C(F)C=C6)N(C)C5=O)C3=C1 [AMG-51] , I found its AC50 for growth inhibition (log10 M) recorded as -5.03

Looking up `O=C(NCCCCN1CCOCC1)c1cc2ccccc2o1` , I found its AC50 for growth inhibition (log10 M) recorded as -4.73

Looking up `OC[C@H]1O[C@H]([C@@H](F)[C@@H]1O)N2\C=C/C(=O)NC2=O` , I found its AC50 for growth inhibition (log10 M) recorded as -5.08

Looking up O=C(O)CCNC(=O)c1ccc(/N=N/c2ccc(O)c(C(=O)O)c2)cc1 [Balsalazide disodium] , I found its AC50 for growth inhibition (log10 M) recorded as -4.68

Looking up CCC[C@H](NC(=O)/C(C#N)=C/c1cccc(Br)n1)c1ccccc1 [Degrasyn] , I found its AC50 for growth inhibition (log10 M) recorded as -5.58

***
Looking up COc1cc2ncnc(Nc3cccc(Cl)c3)c2cc1OC [AG-1478] , I found its AC50 for growth inhibition (log10 M) recorded as -7.43

Looking up CCN(CCO)CCCC(C)Nc1ccnc2cc(Cl)ccc12 (configuration not stated) [Hydroxychloroquine sulfate] , I found its AC50 for growth inhibition (log10 M) recorded as -5.13

====

Tested on: SB.msgc-1
Run description: viability at highest tested concentration (MAXR) relative to DMSO; higher = less cytotoxic
Conditions: SB.msgc-1 (sporadic gastric cancer)
Entries and their viability
Output spec: scalar in %, unitless text.

Looking up CCOC(=O)c1ccc(OC(=O)CCCCCNC(=N)N)cc1 [Gabexate mesilate] (top concentration 46.0829 µM) , I found its viability recorded as 120

Looking up CC[C@]12\C=C/CN3CC[C@]4([C@@H](N(C)C5=CC(=C(C=C45)[C@]6(C[C@H]7C[C@H](CN(C7)CC8=C6[NH]C9=C8C=CC=C9)C(C)(F)F)C(=O)OC)OC)[C@](O)([C@@H]1OC(C)=O)C(=O)OC)[C@H]23 [Vinflunine] (top concentration 46.0829 µM) , I found its viability recorded as 17.2

Looking up CC(C)C1=N[N](C\2=C1C(=O)N\C(=N2)CC3=CC=C(OCCO)C=C3)C4=C(Cl)C=CC=C4Cl (top concentration 46.0829 µM) , I found its viability recorded as 24.2

Looking up O=c1[nH]c(=O)n(C2CCCO2)cc1F (stereo not given) [Tegafur] (top concentration 92.1659 µM) , I found its viability recorded as 87

Looking up O=C(Nc1nc2cccc(-c3ccc(CN4CC[S+](=O)([O-])CC4)cc3)n2n1)C1CC1 [GPLG-0634] (top concentration 46.0829 µM) , I found its viability recorded as 50.3

Looking up O=C(/C=C/c1ccc(O)cc1)c1ccc(O)cc1O [Isoliquiritigenin] (top concentration 46.0829 µM) , I found its viability recorded as 67.1

***
Looking up Nc1ncnc2nc(-c3ccc(N4CCOCC4)nc3)cc(-c3cccc(Br)c3)c12 [ABT-702] (top concentration 46.0829 µM) , I found its viability recorded as 40.7

Looking up O=P1(NCCCl)OCCCN1CCCl (stereo not given) [Ifomide] (top concentration 46.0829 µM) , I found its viability recorded as 39

Looking up Cc1cc(Cl)ccc1OCCCC(=O)NO [Droxinostat] (top concentration 46.0829 µM) , I found its viability recorded as 15.1

Looking up CC(NCc1ccc2c(c1)[nH]/c(=N\C(=O)c1ccc(-c3cn[nH]c3)s1)n2CC(C)(C)O)C(C)(C)C (stereo not given) (top concentration 46.0829 µM) , I found its viability recorded as 28.3

====

Tested on: SB.mhdgc-1
Run description: area under the dose-response curve of % viability (trapezoidal, 11 doses) (% viability x log10 concentration); higher = less cytotoxic
Conditions: SB.mhdgc-1 (hereditary c.1380delA CDH1 gastric cancer)
Quantity: area under the dose-response curve

// solved cases for area under the dose-response curve follow
Looking up Cn1cnc2c1c(=O)[nH]c(=O)n2C [Theobromine] (top concentration 46.0829 µM) , I found its area under the dose-response curve recorded as 531

Looking up CCC[C@H](NC(=O)/C(C#N)=C/c1cccc(Br)n1)c1ccccc1 [Degrasyn] (top concentration 46.0829 µM) , I found its area under the dose-response curve recorded as 464

Looking up O=C1\C=C/C=C2/[C@H]3CNC[C@H](C3)CN12 [Cytisine] (top concentration 46.0829 µM) , I found its area under the dose-response curve recorded as 455

Looking up CCNC(=O)Nc1ccc(-c2nc3c(c(N4CCOC[C@@H]4C)n2)CCN(C2COC2)C3)cc1 [GDC-0349] (top concentration 46.0829 µM) , I found its area under the dose-response curve recorded as 405

Next:
Looking up Cc1ccc(-c2ncn(-c3ccc(Nc4nccc(-c5cccc(N6CCOCC6)c5)n4)cc3)n2)cn1 [SR-3306] (top concentration 46.0829 µM) , I found its area under the dose-response curve recorded as 324

Data provenance: the supplement of paper PMC5412046
